The reader will find reported refractive index values listed item by item below.
assay: refractive index (Na D-line) (dimensionless); xn = mol fraction of the nth substance listed; conditions: 288.15 K; 100.5 kPa; Liquid; Standard Abbe refractometry; x1 = 0.15
Measure: refractive index

- Molecule: "CC(=O)OCCC(C)C [3-methylbutyl ethanoate] + CCO"
  Measure: "refractive index"
  Numeric Readout: 1.37559
- Molecule: "CCCC(=O)OCCC(C)C [3-methylbutyl butanoate] + CCO"
  Measure: "refractive index"
  Numeric Readout: 1.3808
- Molecule: "CCOC(=O)Cc1ccccc1 [ethyl phenylacetate] + CCO"
  Measure: "refractive index"
  Numeric Readout: 1.4087
- Molecule: "CCOC(=O)c1ccccc1 [ethyl benzoate] + CCO"
  Measure: "refractive index"
  Numeric Readout: 1.40895
- Molecule: "CCCCCCCC(=O)OCC [ethyl octanoate] + CCO"
  Measure: "refractive index"
  Numeric Readout: 1.38444
- Molecule: "CCCCCC(=O)OCC [ethyl hexanoate] + CCO"
  Measure: "refractive index"
  Numeric Readout: 1.37883

---

experiment: xn = mol fraction of the nth substance listed; settings: 318.15 K, x1 = 0.9
± gives the expanded uncertainty stated by the source.
The reader will find reported surface tension liquid-gas values listed item by item below.

- Compound: "CCOC(=O)c1ccccc1 [ethyl benzoate] + CCO"
  surface tension liquid-gas: "31 ± 0.7 mN/m"
- Compound: "CCCC(=O)OCCC(C)C [3-methylbutyl butanoate] + CCO"
  surface tension liquid-gas: "22.9 ± 0.6 mN/m"
- Compound: "CC(=O)OCCC(C)C [3-methylbutyl ethanoate] + CCO"
  surface tension liquid-gas: "22.2 ± 0.4 mN/m"
- Compound: "CCCCCC(=O)OCC [ethyl hexanoate] + CCO"
  surface tension liquid-gas: "23.4 ± 0.6 mN/m"
- Compound: "CCCCCCCC(=O)OCC [ethyl octanoate] + CCO"
  surface tension liquid-gas: "24.5 ± 0.6 mN/m"
- Compound: "CCOC(=O)Cc1ccccc1 [ethyl phenylacetate] + CCO"
  surface tension liquid-gas: "31.4 ± 0.7 mN/m"

---

experiment: xn = mol fraction of the nth substance listed; conditions: 298.15 K, x1 = 0.3

- Molecule: "CCOC(=O)c1ccccc1 [ethyl benzoate] + CCO"
  Unit Descriptor: "mN/m"
  surface tension liquid-gas: 26.6
- Molecule: "CCCCCC(=O)OCC [ethyl hexanoate] + CCO"
  Unit Descriptor: "mN/m"
  surface tension liquid-gas: 23.9
- Molecule: "CCCCCCCC(=O)OCC [ethyl octanoate] + CCO"
  Unit Descriptor: "mN/m"
  surface tension liquid-gas: 24.5
- Molecule: "CCOC(=O)Cc1ccccc1 [ethyl phenylacetate] + CCO"
  Unit Descriptor: "mN/m"
  surface tension liquid-gas: 26.1
- Molecule: "CCCC(=O)OCCC(C)C [3-methylbutyl butanoate] + CCO"
  Unit Descriptor: "mN/m"
  surface tension liquid-gas: 23.4

---

The reader will find reported surface tension liquid-gas values listed item by item below.
test: xn = mol fraction of the nth substance listed; settings: 288.15 K, x1 = 0.35
Measure: surface tension liquid-gas (mN/m)

- Molecule: "CCCC(=O)OCCC(C)C [3-methylbutyl butanoate] + CCO"
  Numeric Readout: 24.4
- Molecule: "CCOC(=O)Cc1ccccc1 [ethyl phenylacetate] + CCO"
  Numeric Readout: 27.8
- Molecule: "CCOC(=O)c1ccccc1 [ethyl benzoate] + CCO"
  Numeric Readout: 28.1
- Molecule: "CCCCCC(=O)OCC [ethyl hexanoate] + CCO"
  Numeric Readout: 24.9
- Molecule: "CCCCCCCC(=O)OCC [ethyl octanoate] + CCO"
  Numeric Readout: 25.5
- Molecule: "CC(=O)OCCC(C)C [3-methylbutyl ethanoate] + CCO"
  Numeric Readout: 24.1
